Source: patent US10004803B2

- Protocol text: clinical
- Test conditions: human, in vivo, 20 mg weekly
Measurement kind: concentration at 4 weeks (ng/mL)
Write the value in ng/mL as a bare number.

Task item: So what's the measured concentration at 4 weeks for this one? `CO[C@H]1C[C@@H]2CC[C@@H](C)[C@@](O)(O2)C(=O)C(=O)N2CCCC[C@H]2C(=O)O[C@H]([C@H](C)C[C@@H]2CC[C@@H](OCCO)[C@H](OC)C2)CC(=O)[C@H](C)/C=C(\C)[C@@H](O)[C@@H](OC)C(=O)[C@H](C)C[C@H](C)/C=C/C=C/C=C/1C`
Reply: 0.7

----------
- Protocol text: clinical
- Test conditions: human, in vivo, 0.5 mg daily
Measurement kind: concentration at 4 weeks
Record the result as a number with its unit.

Task item: Value lookup for concentration at 4 weeks; key = CO[C@H]1C[C@@H]2CC[C@@H](C)[C@@](O)(O2)C(=O)C(=O)N2CCCC[C@H]2C(=O)O[C@H]([C@H](C)C[C@@H]2CC[C@@H](OCCO)[C@H](OC)C2)CC(=O)[C@H](C)/C=C(\C)[C@@H](O)[C@@H](OC)C(=O)[C@H](C)C[C@H](C)/C=C/C=C/C=C/1C [RAD001]
Reply: 0.9 ng/mL
